src = patent US12011444B2

Lab note: pIC50 readings collected with EP2 (Homo sapiens (Human), UniProt P43116) for the following molecules.
Sequence (P43116 whole entry): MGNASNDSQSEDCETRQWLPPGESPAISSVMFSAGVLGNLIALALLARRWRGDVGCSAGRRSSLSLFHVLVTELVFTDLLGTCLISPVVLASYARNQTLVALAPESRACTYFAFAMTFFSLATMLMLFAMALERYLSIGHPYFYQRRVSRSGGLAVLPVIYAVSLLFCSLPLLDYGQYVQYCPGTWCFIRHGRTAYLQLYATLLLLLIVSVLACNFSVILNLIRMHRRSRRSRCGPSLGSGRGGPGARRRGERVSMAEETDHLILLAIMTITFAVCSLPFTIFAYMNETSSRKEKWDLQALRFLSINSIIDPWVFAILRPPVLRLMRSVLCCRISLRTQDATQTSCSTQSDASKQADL
Numbers only, as −log10 of the molar value.

Worked set:
Summary for this molecule, COc1cccc2c1cc(C)n2CCNc1cc(-c2cc(Cl)c(C(=O)O)c(OCC(C)C)c2)ncn1 [compound 691] : pIC50 is 8.40

Summary for this molecule, COc1ccc(Cl)c2c1cc(C)n2CCNc1cc(-c2ccc(C(=O)O)c(OCC(C)C)c2)ncn1 [compound 614] : pIC50 is 7.92

Summary for this molecule, COc1cc(F)c(F)c2c1cc(C)n2CCNc1cc(-c2cc(Cl)c(C(=O)O)c(OCC(F)(F)F)c2)ncn1 [compound 722] : pIC50 is 7.49

Summary for this molecule, CCOc1cc(-c2cc(NCCn3c(C)cc4c(OC)c(F)cc(Cl)c43)ncn2)ccc1C(=O)O [compound 486] : pIC50 is 7.04

Summary for this molecule, Cc1cc(F)c(F)c2c1cc(C)n2CCNc1cc(-c2cc(Cl)c(C(=O)O)c(OCC(F)(F)F)c2)ncn1 [compound 724] : pIC50 is 7.24

Summary for this molecule, CCNc1cc(-c2cc(NCCn3c(C)cc4c(C)ccc(F)c43)ncn2)ccc1-c1nnn[nH]1 [compound 668] : pIC50 is 8.10

Summary for this molecule, COc1cccc2c1cc(C)n2CCNc1cc(-c2ccc3c(c2)CN(CC(C)C)C3=O)ncn1 [compound 462] : pIC50 is 7.21

Query molecule follows.
Summary for this molecule, Cc1cnoc1-c1ccc(-c2cc(NCCn3c(C)cc4c(C)cc(F)c(F)c43)ncn2)cc1 [compound 719] : pIC50 is 6.65
